Assayed system: DNA-PK (Homo sapiens (Human))
Experimental protocol: DNA-PK assay (biochemical), flashplate 33P-ATP kinase assay
Conditions: Table 7
Parameter measured: IC50

Reference set (3 entries):
COc1ccc(C(O)c2cc(-c3ncnc4cc(N5CCOCC5)ccc34)c(F)cc2F)cn1 (stereo not shown) ... 3 to 7 nM
Cn1nc(C(O)c2ccc(F)c(-c3ncnc4cc(N5CCOCC5)ccc34)c2F)ccc1=O (stereo not shown) ... > 30 nM
OC(c1cn2ccnc2cn1)c1cc(-c2ncnc3cc(N4CCOCC4)ccc23)c(F)cc1F (stereo not shown) ... 7 to 30 nM

For the compound Cn1nc(C(O)c2cc(-c3ncnc4cc(N5CCOCC5)ccc34)c(F)cc2F)ccc1=O (stereo not shown) , the measured IC50 on DNA-PK (Homo sapiens (Human)) was 3 to 7 nM

----------
Assayed system: DNA-PK (Homo sapiens (Human))
Experimental protocol: DNA-PK assay (biochemical), flashplate 33P-ATP kinase assay
Conditions: biochemical DNA-PK assay
Description: A) DNA-PK Assay (Biochemical) The kinase assay was carried out in streptavidin-coated […] microtitre flashplates. […] The reaction was stopped using 50 μl/well of 200 mM EDTA. After incubation for a further 30 min at room temperature, the liquid was removed. […] A nonspecific reaction (blank value) was determined using 10 μM of an innate kinase inhibitor. The radioactivity measurement was carried out using a TopCount. IC50 values were calculated in RS1.
Parameter measured: IC50

Reference set (3 entries):
NC(=O)C(c1ccc(F)c(-c2ncnc3cc(N4CCOCC4)ccc23)c1)c1nnc(Cl)c2ccsc12 (stereo not shown) ... 3 to 7 nM
OC(c1ccc(F)c(-c2ncnc3cc(N4CCOCC4)ccc23)c1)c1ncnn2cccc12 (stereo not shown) ... < 3 nM
NC(=O)C(c1ccc(F)c(-c2ncnc3cc(N4CCOCC4)ccc23)c1)c1nnc(Cl)c2sccc12 (stereo not shown) ... 3 to 7 nM

Shift focus to the following entry.
What the record says about Cn1ncc2c(C(O)c3cc(-c4ncnc5cc(N6CCOCC6)ccc45)ccc3F)ncnc21 (stereo not shown) : IC50 is 7 to 30 nM

----------
Assayed system: DNA-PK phosphorylation at serine 2056 (Homo sapiens (Human), UniProt P78527)
Experimental protocol: DNA-PK phosphorylation at serine 2056 (cellular), bleomycin-treated HCT116 cells, ELISA
Assay type: cell-based
Conditions: cellular DNA-PK phosphorylation at serine 2056, HCT116; read-out: IC50 pDNA-PK
pIC50: −log10 of the molar value.
Parameter measured: pIC50

What the record says about COc1ccc(C(O)c2cc(-c3ncnc4cc(N5CCOCC5)ccc34)ccc2Cl)nn1 (centres unmarked) [Example 458] : pIC50 is > 6.30

----------
Listed compounds paired with reported pIC50
Assayed system: UniProtKB P78527
Experimental protocol: DNA-PK assay (biochemical), flashplate 33P-ATP kinase assay
Conditions: biochemical DNA-PK assay
pIC50: −log10 of the molar value.

Cn1cnc2c(C(O)c3cc(-c4ncnc5cc(N6CCOCC6)ccc45)ccc3Cl)ncnc21 (stereo not shown) [Example 371] ... 7.52 to 8.15
OC(c1cc(-c2ncnc3cc(N4CCOCC4)ccc23)c(F)cc1F)c1cccc2nncn12 (stereo not shown) [Example 350] ... 8.15 to 8.52
Cn1c(C(O)c2cc(-c3ncnc4cc(N5CCOCC5)ccc34)c(F)cc2F)cccc1=O (stereo not shown) [Example 380] ... 8.15 to 8.52

Shift focus to the following entry.
What the record says about OC(c1ccc(F)c(-c2ncnc3cc(N4CCOCC4)ccc23)c1)c1nncc2ccsc12 (stereo not shown) [Example 332] : pIC50 is > 8.52
